- target_system: GADD45β/MKK7 complex (Homo sapiens)
- Construct: Full-length human (h)MKK7 was expressed as a protein fused to an N-terminal GST tag (GST-MKK7); made in house
- Sequence (O14733 whole entry, the tested form may be a part, one chain of several): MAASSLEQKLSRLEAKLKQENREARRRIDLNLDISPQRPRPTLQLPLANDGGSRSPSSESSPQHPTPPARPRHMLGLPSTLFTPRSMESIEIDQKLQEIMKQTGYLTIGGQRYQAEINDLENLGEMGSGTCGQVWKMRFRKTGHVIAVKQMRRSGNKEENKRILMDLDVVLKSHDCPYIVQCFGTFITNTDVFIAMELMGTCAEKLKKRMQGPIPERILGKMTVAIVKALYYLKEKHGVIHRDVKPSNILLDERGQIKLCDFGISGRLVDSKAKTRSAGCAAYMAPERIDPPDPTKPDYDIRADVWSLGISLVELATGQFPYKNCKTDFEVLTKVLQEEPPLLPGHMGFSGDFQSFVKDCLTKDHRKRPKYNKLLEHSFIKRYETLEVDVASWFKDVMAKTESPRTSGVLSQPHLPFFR
- experiment_summary: ELISA GADD45β/MKK7 competition assay
- Format: binding
pIC50: −log10 of the molar value.
Reported pIC50 values for a set of molecules
recorded_metric: pIC50

NC(=O)CC[C@@H](NC(=O)[C@@H](Cc1c[nH]cn1)NC(=O)[C@@H](CC(=O)O)NC(=O)[C@@H](Cc1ccc(O)cc1)NC(=O)c1ccccc1)C(N)=O :: < 8.00
NC(=O)[C@@H](Cc1ccccc1)NC(=O)[C@@H](Cc1c[nH]cn1)NC(=O)[C@@H](CC(=O)O)NC(=O)[C@@H](Cc1ccc(O)cc1)NC(=O)c1ccccc1 :: < 8.00
N=C(N)NCCC[C@@H](NC(=O)[C@@H](CCC(=O)O)NC(=O)[C@@H](Cc1ccc(O)cc1)NC(=O)c1ccccc1)C(=O)N[C@H](Cc1ccccc1)C(N)=O :: < 8.00
